Each entry below carries its recorded growth.
# System: M14 melanoma
# Protocol details: NCI-60 one-dose screen, 48 h (100 = growth as untreated, 0 = no growth, -100 = all killed)
# Condition parameters: 10 µM unless noted
# Method: Growth inhibition of the M14 human tumor cell line is measured as a screen for anti-cancer activity. Cells are grown in 96 well plates and exposed to the test compound for 48 hours. Compounds are tested at a single concentration, which is 10^-5 M for most compounds. The reported endpoint is percent growth (GI% or GIPRCNT), where numbers from 0 - 100% represent growth inhibition, and numbers from -100% - 0 represent cell death. For example, a value of 40 represents 60% growth inhibition. […]
About 83,000 compounds went through this panel and 20% of them were active in at least one assay; those are over-represented in the sample as a whole. Activity calls are given as the source filed them. How the source made its calls: active means growth percent below 10; inactive means the rest.

The examples below pair each entry with its known result.
Cc1nc2ccccc2c(/C=C/c2ccc(F)cc2)c1C(=O)/C=C/c1ccccc1 | 12.4% (inactive)
COc1cc(/C=C/c2cc(/C=C/c3ccc(O)c(OC)c3)n(C(=O)Nc3ccc(Cl)cc3)n2)ccc1O | 4.04% (active)
Nc1ncccc1O | 102% (inactive)

In: Please report the recorded growth for O=C(/C=C/C12c3ccccc3C(c3ccccc31)C1C(=O)NC(=O)C12)c1ccco1 (stereo not given) .
Out: 46.6% (inactive)

In: Queued: CN1CC(c2ccc(Br)cc2)C(C(=O)c2ccc(Br)cc2)C12C(=O)Nc1ccccc12 (stereo not given)
Out: 76% (inactive)
